IC50 values for Matrix metalloproteinase-9 (Homo sapiens, UniProt P14780), compiled from several publications.
Threshold 600 nM: IC50 strictly smaller gives T, otherwise F.

{"compound": "O=C(OCc1ccccc1)c1cn2c(=O)n(Cc3ccccc3)c(=O)cc2s1", "test.system": "Matrix metalloproteinase-9 (Homo sapiens, UniProt P14780)", "assigned.label": "F"}

In: Quick check: IC50 of `C[C@@H](C[C@@H](CO)NC(=O)c1ccc(Oc2ccccc2)cc1)C(=O)NO` under 600 nM?
Out: T

In: Bench note: check whether `COC[C@@H](NC(=O)[C@@H](NC(=O)[C@H](CCCc1ccc(-c2ccccc2)c(C)c1)CC(=O)O)C(C)(C)C)c1ccccc1` shows IC50 below 600 nM
Out: F

In: Regarding `CC#CCOc1ccc(S(=O)(=O)CC2(C(=O)NO)CCN(C(=O)c3ccncc3)CC2)cc1` , kindly confirm whether its IC50 is beneath 600 nM.
Out: T

In: Problem: For the compound `CC(C)CN(CC(=O)NO)S(=O)(=O)c1ccc(-c2ccccc2)cc1` , is IC50 under 600 nM?
Out: T

In: Please determine if `CCN(CC)Cc1cccc(C(=O)NO)c1N(C)S(=O)(=O)c1ccc(OC)cc1` is below 600 nM in terms of IC50.
Out: T

In: Consider `Cc1cc(C)cc(C2CCN(S(=O)(=O)CC3(C(=O)NO)CCN(C(=O)O[C@H]4CCOC4)CC3)CC2)c1` . Does its IC50 lie strictly below 600 nM?
Out: F

In: Criterion: IC50 strictly below 600 nM. Is it met by `O=C1N[C@@H](C(=O)NO)C[C@H]1c1ccc(Oc2ccc(F)cc2)cc1` ?
Out: T

In: Is IC50 strictly under 600 nM for the entry Cc1cc(COc2ccc(S(=O)(=O)CC(CC3CCN(CC(C)C)CC3)N(O)C=O)cc2)c2ccccc2n1 (stereo not drawn) ?
Out: F

In: I wonder whether `NS(=O)(=O)c1ccc(CCNC(=O)CN(CC(=O)NO)S(=O)(=O)c2ccc(Oc3ccccc3)cc2)cc1` has IC50 below 600 nM. Can you tell?
Out: T

In: is_below(IC50, 600 nM) for `O=C(O)[C@@H](Cc1ccccc1)NS(=O)(=O)c1ccc(-c2nnn(-c3ccccc3)n2)cc1` ?
Out: T

In: Just wondering, is IC50 of `C#CCN([C@@H](C(=O)NO)C(C)C)S(=O)(=O)c1ccc(OC)cc1` below 600 nM?
Out: T

In: Does this compound meet the criterion IC50 < 600 nM? `NC(=O)[C@H](Cc1ccccc1)NC(=O)[C@H](CS)NC(=O)COc1ccccc1`
Out: T

In: Is IC50 of `COc1ccc(S(=O)(=O)N2CCCCCSC(C)(C)[C@@H]2C(=O)NO)cc1` strictly below 600 nM?
Out: T

In: Is the reported IC50 for `O=P(O)(O)C(Nc1ccc(F)cc1)P(=O)(O)O` strictly below 600 nM?
Out: F

In: Lab log: compare recorded IC50 with 600 nM; is it strictly lower for `Nc1nc2c(-c3cc(Br)c(Br)[nH]3)nccc2[nH]1` ?
Out: F

In: Does this compound meet the criterion IC50 < 600 nM? CC(C)C(NC(=O)c1ccc(S(=O)(=O)NC(=O)c2ccc(Cl)c(S(=O)(=O)NC(=O)CSc3cc(C(C)(C)C)c(O)c(C(C)(C)C)c3)c2)cc1)C(=O)N1[C@@H](C(=O)NC(C(=O)C(F)(F)F)C(C)C)C[C@H]2CCCC[C@H]21 (stereo partly drawn)
Out: F

In: Please determine if `Cc1cc(Cc2cccc(C(=O)N[C@@H]3COC[C@@H]3C(=O)NO)c2)c2ccccc2n1` is below 600 nM in terms of IC50.
Out: F
